System: cathepsin L1 (Fasciola hepatica)
Test: CTSL1 protease inhibition, fluke enzyme – biochemical, QFRET, fluorogenic peptide substrate, counter-screen for PFM18AAP inhibitor project, primary screen (AID 1906);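 also: 0% = plate median of test compound wells and 100% = 1 µM Z-Phe-Ala-diazomethylketone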
Conditions: recombinant F. hepatica cathepsin L1, Z-Leu-Arg-MCA fluorescence; at 5.96 µM
Hit rate of the full screen: of about 300,000 compounds, about 1,500 (0.5%) were called active.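 The calls were made as follows: active = inhibition above the mean of all tested compounds plus 3 SD, set per screening campaign (cut at about 17% in these data); inactive = the rest.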 The sample holds actives, similar compounds and a random draw of the others, so the mix is not that of the screen.
Outcomes you can answer with include only these: y (active), n (inactive)

See these solved cases before continuing.
[
  {
    "molecule": "Cc1cc(C)nc(N(C#N)CC(=O)Nc2ccccc2)n1",
    "discrete_label": "n"
  },
  {
    "molecule": "Cc1ccccc1NC(=O)c1ccc(COc2ccc3c(C)cc(=O)oc3c2)cc1",
    "discrete_label": "n"
  },
  {
    "molecule": "COC(=O)C(C)N(C#N)c1nc(C)nc(C)n1 (stereo unspecified)",
    "discrete_label": "n"
  },
  {
    "molecule": "O=C(CSc1nc2ccccc2o1)N/N=C/c1ccccc1C(=O)O",
    "discrete_label": "n"
  },
  {
    "molecule": "CCOC(=O)c1ccc(-c2ccc(C(=O)Nc3cccnc3)o2)cc1",
    "discrete_label": "y"
  }
]

Let us examine a further case.
[in] Identify the outcome logged in this assay for the molecule shown: Cc1ccc(C2C(C#N)C(C#N)N3CCCN23)cc1 (stereo unspecified)
[out] n

====

Can you tell me inhibition for the items I'm about to list?
Tested on: cathepsin L1 (Fasciola hepatica)
Experiment: CTSL1 protease inhibition, fluke enzyme – biochemical, QFRET, fluorogenic peptide substrate, counter-screen for PFM18AAP inhibitor project, primary screen (AID 1906);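 also: 0% = plate median of test compound wells and 100% = 1 µM Z-Phe-Ala-diazomethylketone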
Settings: recombinant F. hepatica cathepsin L1, Z-Leu-Arg-MCA fluorescence; at 5.96 µM; stronger effect = higher value
The campaign covered roughly 300,000 compounds. About 1,500 (0.5%) were called active. This excerpt belongs to a sample that is enriched for actives.

Worked examples follow.
[
  {
    "compound": "Cc1cccc(NC(=O)CCN2CC(C)CC(C)C2)c1 (centres undefined)",
    "reported_result": "-3.49% (inactive)"
  },
  {
    "compound": "CCOC(=O)C1=C(O)/C(=C/c2cc(C)n(-c3ccccc3)c2C)N=C1C",
    "reported_result": "-0.93% (inactive)"
  },
  {
    "compound": "COC(=O)Cn1cnc2scc(-c3ccc(C)c(C)c3)c2c1=O",
    "reported_result": "24.9% (active)"
  },
  {
    "compound": "O=C(O)CSCC(=O)Nc1cccc(C(F)(F)F)c1",
    "reported_result": "16.9% (active)"
  },
  {
    "compound": "O=C(NCCC1CCCCN1S(=O)(=O)c1cccs1)C(=O)Nc1ccc(F)cc1F (centres undefined)",
    "reported_result": "2.68% (inactive)"
  },
  {
    "compound": "COc1ccc(Cl)cc1NC(=O)c1cccc(N2C(=O)C3CC=CCC3C2=O)c1 (centres undefined)",
    "reported_result": "0.1% (inactive)"
  }
]

List the reported inhibition of each compound below.
1. Cc1ccc(NC(=O)CSc2nnc(COc3ccccc3C)o2)cc1
2. COc1ccccc1CCNC(=O)C(=O)NCCC1CCCCN1S(=O)(=O)c1cccs1 (centres undefined)
3. CC(C)C(=O)Nc1c(O)c2ccccc2[nH]c1=O
4. CCOc1cc(C)ccc1OCc1nnc(SCC(=O)Nc2cccc(C(=O)O)c2)n1-c1ccccc1
5. COc1ccc(CCNC(=O)C(=O)NCC2CCCN2S(=O)(=O)c2cccs2)cc1OC (centres undefined)
6. CCn1cnc2scc(-c3ccc(C)c(C)c3)c2c1=O

[out]
2.58% (inactive)
17.3% (active)
-1.29% (inactive)
-6.39% (inactive)
-2.2% (inactive)
0.4% (inactive)

List the reported inhibition of each compound below.
1. CN(C)C(CNC(=O)c1cccc(S(=O)(=O)Nc2ccc(Br)cc2)c1)c1ccco1 (centres undefined)
2. O=C(O)CSCC(=O)Nc1ccc(C(F)(F)F)cc1
3. CC(Sc1nc2cc(Cl)ccc2s1)C(=O)Nc1ccc2c(c1)OCO2 (centres undefined)
4. COc1ccc(Cl)cc1NC(=O)COC(=O)C(CC(C)C)N1C(=O)C2CC=CCC2C1=O (centres undefined)
5. CC(OC(=O)CCC(=O)c1ccccc1)C(=O)Nc1ccc(F)cc1 (centres undefined)

[out]
["-0.56% (inactive)", "-1.45% (inactive)", "-3.27% (inactive)", "39.5% (active)", "-70.5% (inactive)"]

====

Test system: cathepsin L1 (Fasciola hepatica)
Assay: CTSL1 protease inhibition, fluke enzyme – biochemical, QFRET, fluorogenic peptide substrate, counter-screen for PFM18AAP inhibitor project, primary screen (AID 1906);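 also: 0% = plate median of test compound wells and 100% = 1 µM Z-Phe-Ala-diazomethylketone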
Conditions: recombinant F. hepatica cathepsin L1, Z-Leu-Arg-MCA fluorescence; at 5.96 µM; stronger effect = higher value
Among all 300,000 compounds or so, about 1,500 (0.5%) were called active. The full list was thinned out, with actives kept by preference.
Can you tell me inhibition for the items I'm about to list?
Give bare numbers, in %.

Worked examples follow.
[
  {
    "molecule": "CC(OC(=O)CNC(=O)c1ccc(Cl)c([N+](=O)[O-])c1)C(=O)NCc1ccco1 (centres undefined)",
    "units_label": "%",
    "reported_result": -10.4
  },
  {
    "molecule": "O=C(CN1CCN(S(=O)(=O)c2ccc(F)cc2)CC1)NC1CC1",
    "units_label": "%",
    "reported_result": 0.44
  }
]

List the reported inhibition of each molecule below.
1. Cc1oc2c(c1C(=O)N1CCOCC1)C(=O)c1ccccc1C2=O
2. O=C(Cc1ccccc1Cl)N1CCOCC1
3. O=C(CSc1nc2ccccc2[nH]1)N/N=C/C=C\c1ccccc1[N+](=O)[O-]
4. Cc1ccc(C(=O)N2CCN(C(=O)N3CCOCC3)CC2)cc1
5. O=C(CSCc1cccs1)N1CCCC1

[out]
1. 18.4
2. -0.12
3. 4.39
4. 1.67
5. -3.58

List the reported inhibition of each molecule below.
1. [2H]C(CCOS(N)(=O)=O)c1ccccc1 (centres undefined)
2. CCOC(=O)C(C)n1nc(-c2ccccc2)c2ccccc2c1=O (centres undefined)
3. O=C(CN1CCN(S(=O)(=O)c2ccc(Cl)s2)CC1)NCc1ccc(Cl)cc1
4. Cc1ccc(C(C)C)c(OCCSc2nc3ccccc3n2CC(=O)O)c1

[out]
1. 1.8
2. 3.78
3. -3.91
4. 2.31

List the reported inhibition of each molecule below.
1. CN(c1ccccc1)S(=O)(=O)c1ccc2[nH]c(=O)[nH]c2c1
2. Cc1cccc2nc(CNc3ccc(F)cc3)cn12
3. CCC1Oc2ccccc2N(CC(=O)NCCCN2CCN(CC)CC2)C1=O (centres undefined)
4. O=C1c2cccnc2C(=O)N1Cc1cccs1
5. CC12CCC(=O)N1C(C(=O)Nc1ccc(F)c(F)c1F)CS2 (centres undefined)
6. c1csc(CN2CCN(Cc3cccs3)C2c2cccs2)c1

[out]
[-6.38, -0.43, 1.49, 0.86, 2.04, 17]

List the reported inhibition of each molecule below.
1. CC(OC(=O)CNC(=O)c1cccc(F)c1)C(=O)NC1CCCCC1C (centres undefined)
2. CC(=O)c1cccc(NC(=S)N2CCN(S(C)(=O)=O)CC2)c1
3. CNC(=O)c1c(NC(NC(=O)c2ccco2)C(=O)c2ccc(Cl)cc2)sc2c1CCCC2 (centres undefined)
4. CCOc1ccc(CN2CCN(Cc3ccc(C)o3)CC2CCO)cc1 (centres undefined)
5. Cc1ccc(Cl)c(NC(=O)CN2CCN(C=O)CC2)c1

[out]
46.5
-1.96
1.81
-3.26
-5.16

List the reported inhibition of each molecule below.
1. Cc1ccc(C(=O)COC(=O)CCN2C(=O)C3C4CCC(C4)C3C2=O)cc1C (centres undefined)
2. CC(=O)c1ccccc1NC(=O)CC1(CC(=O)O)CCCCC1

[out]
1: 8.56; 2: 2.79

====

System: cathepsin L1 (Fasciola hepatica)
Test: CTSL1 protease inhibition, fluke enzyme – biochemical, QFRET, fluorogenic peptide substrate, counter-screen for PFM18AAP inhibitor project, primary screen (AID 1906);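 also: 0% = plate median of test compound wells and 100% = 1 µM Z-Phe-Ala-diazomethylketone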
Conditions: recombinant F. hepatica cathepsin L1, Z-Leu-Arg-MCA fluorescence; at 5.96 µM; stronger effect = higher value
The campaign covered roughly 300,000 compounds. About 1,500 (0.5%) were called active. The list comes from a sample in which actives are over-represented; it also holds close analogues and randomly drawn compounds.
Can you tell me inhibition for the items I'm about to list?
Numbers only, in %.

Worked examples follow.
[
  {
    "structure_as_smiles": "CCN(C(=O)CN1CCN(Cc2ccccc2)CC1)c1c(N)n(Cc2ccccc2)c(=O)[nH]c1=O",
    "inhibition (%)": -1.57
  },
  {
    "structure_as_smiles": "CC(=O)Nc1ccc(S(=O)(=O)N(C)CC(=O)NCCC2=CCCCC2)cc1",
    "inhibition (%)": -4.22
  },
  {
    "structure_as_smiles": "Nc1c(N(CCO)C(=O)C2CCCCC2)c(=O)[nH]c(=O)n1Cc1ccccc1",
    "inhibition (%)": 23.6
  },
  {
    "structure_as_smiles": "COc1ccccc1CCNC(=O)CN1C(=O)NC2(CCCC2)C1=O",
    "inhibition (%)": -1.76
  }
]

[in] Determine its reported inhibition: O=C(CCl)Nc1cccc(CP(=O)(c2ccccc2)c2ccccc2)c1
[out] 72
